- Tested on: Escherichia coli TOP10
- ASSAY_SUMMARY: shrunken log2 fold change of peptide-encoding DNA abundance (4.5 h post-induction vs induction); higher = less antimicrobial activity (less host growth inhibition)
- PROTOCOL_CONDITIONS: time post-induction: 4.5 h; library: site-saturation at positions 5, 18, 19, 20
Classes are defined on shrunken log2 fold change with ranges low interval: < -0.1; middle interval: ≥ -0.1 and < 0.1; high interval: ≥ 0.1

## Input Input `RRIRFRPPRLPRPRPRPPYNPRP` ; output its category
## Output low interval

## Input Let us now turn to `RRIRDRPPRLPRPRPRPSRRPRP`
## Output high interval

## Input Let us now turn to `RRIRKRPPRLPRPRPRPVGRPRP`
## Output high interval

## Input Let us now turn to `RRIRDRPPRLPRPRPRPSRDPRP`
## Output middle interval

## Input Let us now turn to `RRIRNRPPRLPRPRPRPKYFPRP`
## Output middle interval

## Input Let us now turn to `RRIRCRPPRLPRPRPRPGIGPRP`
## Output high interval

* * *

- System: Escherichia coli TOP10
- ASSAY_SUMMARY: shrunken log2 fold change of peptide-encoding DNA abundance (4.5 h post-induction vs induction); higher = less antimicrobial activity (less host growth inhibition)
- PROTOCOL_CONDITIONS: time post-induction: 4.5 h; library: site-saturation at positions 5, 18, 19, 20
shrunken log2 fold change values for the sequences below.
Reply with just the number.

Use the examples below as a reference point.
RRIRIRPPRLPRPRPRPLRKPRP : 0.00781
RRIRFRPPRLPRPRPRPGMVPRP : -0.0783
RRIRSRPPRLPRPRPRPNNVPRP : -0.592
RRIRTRPPRLPRPRPRPQGNPRP : -0.164
RRIRQRPPRLPRPRPRPFLIPRP : -1.81
RRIRCRPPRLPRPRPRPILVPRP : -0.0457
RRIRIRPPRLPRPRPRPVETPRP : 0.156
RRIRNRPPRLPRPRPRPQHYPRP : -0.319

## Input May I ask what shrunken log2 fold change has been recorded for `RRIRLRPPRLPRPRPRPYWPPRP` ?
## Output -0.518

## Input Let us now turn to `RRIRSRPPRLPRPRPRPVCVPRP`
## Output 0.0943

## Input Let us now turn to `RRIRCRPPRLPRPRPRPQPGPRP`
## Output 0.437

* * *

- Test system: Escherichia coli TOP10;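 further: peptides expressed intracellularly from a pBAD plasmid library in pooled LB shake-flask culture, induced with 0.3% L-arabinose, DNA abundance read by NGS, three biological replicates, DESeq2 with apeglm shrinkage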
- ASSAY_SUMMARY: shrunken log2 fold change of peptide-encoding DNA abundance (4.5 h post-induction vs induction); higher = less antimicrobial activity (less host growth inhibition)
- PROTOCOL_CONDITIONS: time post-induction: 4.5 h; library: site-saturation at positions 5, 18, 19, 20
READOUT_KIND: shrunken log2 fold change
Reply with just the number.

RRIRNRPPRLPRPRPRPGISPRP : 0.0154
RRIRGRPPRLPRPRPRPTINPRP : 0.477
RRIRYRPPRLPRPRPRPAMSPRP : -0.0191
RRIRCRPPRLPRPRPRPSGSPRP : -0.125

## Input May I ask what shrunken log2 fold change has been recorded for `RRIRQRPPRLPRPRPRPYHYPRP` ?
## Output -0.711

## Input Let us now turn to `RRIRNRPPRLPRPRPRPDKKPRP`
## Output -0.0263

## Input Let us now turn to `RRIRARPPRLPRPRPRPHPSPRP`
## Output 0.327

## Input Let us now turn to `RRIRRRPPRLPRPRPRPQAHPRP`
## Output 0.544

## Input Let us now turn to `RRIRVRPPRLPRPRPRPHTAPRP`
## Output -0.00836

## Input Let us now turn to `RRIRFRPPRLPRPRPRPGNMPRP`
## Output -0.198
